- tgt: Hexose transporter 1 (Plasmodium falciparum)
- experimental details: ST_JUDE_LEISH: Cytotoxicity at 2uM final concentration against transgenic Leishmania Mexicana promastigotes LmPfHT that are glucose transport deficient and complemented with the Plasmodium falciparum hexose transporter. Activity is measured by DNA content using SYBR green in vitro
- Type: functional

molecule: Cn1cnc(CCNC(=O)c2cccc(-c3csc(-c4nc5ccccc5[nH]4)c3)c2)c1
inhibition / %: -0.39
//
molecule: COc1ccc2nccc([C@@H](O)CN3CCC(NC(=O)c4cc5ccccc5[nH]4)CC3)c2c1
inhibition / %: 55.7
//
molecule: CCNc1cc(C)nc(Nc2ccc(NC(=O)c3ccccc3)cc2)n1
inhibition / %: 4.8
//
molecule: Cc1c(CNCCCNc2cc(=O)c3ccccc3[nH]2)sc(-c2ccco2)c1Br
inhibition / %: 13.6
//
molecule: CCCCNCc1ccc(-c2nc(CN(C(=O)Nc3cc([N+](=O)[O-])ccc3F)C3Cc4ccccc4C3)cs2)cc1
inhibition / %: 8.03
//
molecule: CCCCNC(=O)[C@H](CC1CCCCC1)NC(=O)c1ccc(O)c(-c2cccc(C(F)(F)F)c2)c1
inhibition / %: 3.75
//
molecule: O=C(C=Cc1ccc(Cl)c(Cl)c1)NCCCCCN1CCCC(CCCNC(=O)/C=C/c2ccccc2)C1 (centres undefined)
inhibition / %: 3.05
//
molecule: c1cc(CNCC2CCCO2)cc(-c2cccc(-c3nc4ccccc4[nH]3)c2)c1 (centres undefined)
inhibition / %: 1.76
//
molecule: COc1ccc(CN2C(=S)N(Cc3ccccc3)C(=O)C2CC(=O)Nc2ccccc2)cc1OC (centres undefined)
inhibition / %: -0.87
//
molecule: CCc1nc2c(cnn2CC)c(NC2CCOCC2)c1CNC(=O)N1CCOCC1
inhibition / %: -1.12
//
molecule: COc1ccc2ncc(Cl)c(CCN3CC[C@@H](CNCc4cc5c(cn4)OCS5)C3)c2n1
inhibition / %: 7.89
//
molecule: CCN(CC)c1cc(C)c2cc(NC(=O)c3cc(=O)c4ccccc4o3)ccc2n1
inhibition / %: 6.88
//
molecule: CCCCOc1c(CNCCCCCCNCc2ccc3ccccc3c2OCCCC)ccc2ccccc12
inhibition / %: 49.1
//
molecule: Cc1cc(N[C@@H](CC(C)C)C(=O)NCc2cccc(F)c2)nc(NCCc2ccc(F)cc2)n1
inhibition / %: 7.16
//
molecule: CN(C)c1cccc2c(S(=O)(=O)Nc3cccc(CCN4CCC(N5CCCCC5)CC4)c3)cccc12
inhibition / %: -3.51
//
molecule: Cc1ccc(NC(=O)c2ccc(NCCCN3CC(C)CC(C)C3)c([N+](=O)[O-])c2)cc1F (centres undefined)
inhibition / %: 5.06
//
molecule: O=C(NCc1ccc(Cl)c(Cl)c1)c1ccc(-c2nc3cc(F)c(F)cc3[nH]2)cc1
inhibition / %: 0.14
//
molecule: CCC1CCCCN1S(=O)(=O)c1ccc(NC(=O)c2cc(C)on2)cc1 (centres undefined)
inhibition / %: 0.15
//
molecule: Cc1c(CCC#N)c(NCc2ccccc2)n2c(nc3ccccc32)c1C#N
inhibition / %: 0.53

----------
- tgt: Glucose transporter (Leishmania mexicana)
- experimental details: ST_JUDE_LEISH: Cytotoxicity at 2uM final concentration against transgenic Leishmania Mexicana promastigotes LmGT2 that are glucose transport deficient and complemented with the L. Mexicana glucose transporter 2. Activity is measured by DNA content using SYBR green in vitro
- Type: functional
Entries annotated with measured inhibition

molecule: CC(CO)(CO)NCc1cc2c3ccccc3c(CNC(C)(CO)CO)cc2c2ccccc12
reading unit: %
inhibition: 2.67
--
molecule: N#Cc1ccc2c(c1)CCN(CCC1CCC(NC(=O)/C=C/c3ccc(Cl)c(Cl)c3)CC1)CC2 (stereo not given)
reading unit: %
inhibition: 6.83
--
molecule: O=C(O)c1ccc2nc(-c3ccccn3)c(-c3ccccn3)nc2c1
reading unit: %
inhibition: -0.14
--
molecule: COc1ccc(CCn2c(C3CCCCC3)nc3oc4ccccc4c(=O)c3c2=O)cc1
reading unit: %
inhibition: -0.12
--
molecule: O=C(N[C@@H](CC1CCCCC1)C(=O)NCc1cccc2ccccc12)c1ccc(O)c(-c2ccc(Cl)c(Cl)c2)c1
reading unit: %
inhibition: 2.22
--
molecule: O=C(Nc1ccncc1)c1cn(-c2ccccc2)nc1-c1cccs1
reading unit: %
inhibition: 3.52
--
molecule: CNCc1cccc2nc(-c3ccc(Cc4cc(Cl)ccc4OCC(C)C)o3)[nH]c12
reading unit: %
inhibition: 3.52
--
molecule: O=C(NCCCCN1CCC(c2ccc(OC(F)(F)F)cc2)CC1)c1ccc(NC(=O)c2ccc(Cl)cc2)cc1
reading unit: %
inhibition: -1.72
--
molecule: Clc1ccccc1CN1CCC(NCc2cccc(-n3ccnc3)c2)CC1
reading unit: %
inhibition: 1.16
--
molecule: N#CCCN1CCN(Cc2cccc(-c3ccc(-c4nc5ccccc5[nH]4)s3)c2)CC1
reading unit: %
inhibition: -0.4

----------
- tgt: Glucose transporter (Leishmania mexicana)
- experimental details: ST_JUDE_LEISH: Cytotoxicity at 2uM final concentration against transgenic Leishmania Mexicana promastigotes LmGT2 that are glucose transport deficient and complemented with the L. Mexicana glucose transporter 2. Activity is measured by DNA content using SYBR green in vitro
- Type: functional

compound: CC1CN(CC(O)Cn2c3ccc(Br)cc3c3cc(Br)ccc32)CC(C)O1 (centres undefined)
inhibition / %: 3.29
//
compound: O=C(/C=C/c1ccc(C(F)(F)F)cc1)NCCCCCN1CCCN(C(=O)Nc2ccc(F)c(Cl)c2)CC1
inhibition / %: 0.39
//
compound: O=C(Nc1cccc(C(F)(F)F)c1)c1cccc(S(=O)(=O)NC2CCN(CC3CCCCC3)C2)c1 (centres undefined)
inhibition / %: 2.99
//
compound: Cc1cccc2nc(-c3ccc(-c4ccc(C(=O)NCCN5CCCC5)cc4)cc3)[nH]c12
inhibition / %: -0.61
//
compound: CCN(CCCN1CCCCC1)c1cc(C)nc(Nc2ccc(Oc3ccccc3)cc2)n1
inhibition / %: 5.44
//
compound: CC(C)(C)c1cc(C(=O)N2CCN(c3ccc(C(F)(F)F)cn3)CC2)n(Cc2ccc(F)cc2)n1
inhibition / %: -1.88
//
compound: N=c1sc2ccccc2n1CC(O)c1ccc(Cl)c(Cl)c1 (centres undefined)
inhibition / %: 0.57
//
compound: CCCCCCNC(=O)C(N)CCCC(N)C(=O)NCCCCCC (centres undefined)
inhibition / %: 5.23
//
compound: Cc1ccc2c(=O)cc(CCc3cccc(F)c3F)n(CC(=O)N(Cc3ccc(-c4ccc(C(F)(F)F)cc4)cc3)C3CCN(C)CC3)c2n1
inhibition / %: 1.01
//
compound: Cc1nc(-c2nc(NCc3ccc4c(c3)OCO4)ncc2-c2ccsc2)sc1C
inhibition / %: 0.68
//
compound: COc1ccc2nccc([C@@H](O)CN3CCC(NC(=O)C(c4ccsc4)N4CCN(c5ccccc5)CC4)CC3)c2c1 (some centres undefined)
inhibition / %: 1.54
//
compound: O=C1CCCN1CCCNCc1cccc(-c2ccc(-c3nc4ccccc4[nH]3)s2)c1
inhibition / %: -0.46
//
compound: Cc1cccc(-c2nn(-c3ccccc3)c3[nH]c(=O)c(CN4CCSCC4)cc23)c1
inhibition / %: 1.18
//
compound: O=C(/C=C/c1ccc(Cl)c(Cl)c1)NCCCCCCN1CCCN(C(=O)Nc2ccc(Cl)c(Cl)c2)CC1
inhibition / %: -2.06
//
compound: O=C(Nc1cccc(F)c1)NC1CCN(c2ccnc3cc(Cl)ccc23)C1 (centres undefined)
inhibition / %: 4.22
//
compound: CCCc1cc2c3c(N)nc(N)nc3ccc2n1CC
inhibition / %: 4.29
//
compound: CCNc1cc(C(=O)N[C@@H](Cc2ccccc2)[C@H](O)CNC(C)Cc2cccc(Cl)c2)cc(N2CCCCS2(=O)=O)c1 (some centres undefined)
inhibition / %: -1.63
//
compound: Cc1ccc(Cc2cccc3nc(N)nc(N)c23)cc1
inhibition / %: -0.6
//
compound: COc1cc2c(cc1OCCN1CCC(N3CCCC3)CC1)N(C(=O)/C=C/c1ccccc1Cl)CC2
inhibition / %: 2.99

----------
- tgt: Glucose transporter (Leishmania mexicana) (UniProt O61059)
- experimental details: ST_JUDE_LEISH: Cytotoxicity at 2uM final concentration against transgenic Leishmania Mexicana promastigotes LmGT2 that are glucose transport deficient and complemented with the L. Mexicana glucose transporter 2. Activity is measured by DNA content using SYBR green in vitro
- Format: functional
inhibition values, listed per item

compound: CN1CCN(CC(=O)Nc2cccc(-c3cccc(-c4nc5cc(C(F)(F)F)ccc5[nH]4)c3)c2)CC1
inhibition (%): 3.87
--
compound: CC(C)Nc1cc(C(=O)N[C@@H](Cc2ccccc2)[C@H](O)CNCc2cccc(C(F)(F)F)c2)c(F)c(N2CCCCS2(=O)=O)c1
inhibition (%): 7.07
--
compound: CC(C)(C)c1ccc(CNCC(C)(C)c2nc(-c3ccnc(N)n3)c(-c3ccc(Cl)c(O)c3)[nH]2)cc1
inhibition (%): 4.54
--
compound: CC(C)CCNC(=O)C1Cc2c([nH]c3ccc(Br)cc23)C2(CCN(Cc3ccccc3)CC2)N1 (centres undefined)
inhibition (%): 94.2
--
compound: CC(=O)Nc1ccc(S(=O)(=O)Nc2c(C)cc(Cc3cnc(N)nc3N)cc2C)cc1
inhibition (%): -0.69
--
compound: COc1ccccc1N1CCN(CCCCNC(=O)c2ccc(NC(=O)c3ccc4ccccc4c3)cc2)CC1
inhibition (%): -0.43
--
compound: Cc1nc(-c2nc(N3CCC(O)CC3)ncc2-c2ccsc2)sc1C
inhibition (%): 0.38
--
compound: c1ccc(-c2cc3cccc(-c4nc5cnccc5[nH]4)c3o2)cc1
inhibition (%): 10.6
--
compound: CC(C)Sc1nc(-c2ccccc2)nc2c1COC(C)(C)C2
inhibition (%): -4.12
--
compound: N#Cc1ccc(C(=O)Nc2ccc(Cl)c(N3CCN(CCc4ccccc4)CC3)c2)cc1
inhibition (%): 7.85
--
compound: COc1ccc(Nc2nccc(N3CCC(NC(=O)Nc4cccc(OC)c4)C3)n2)cc1 (centres undefined)
inhibition (%): 0.51
--
compound: O=C(NC1CCCCC1)N(CCCn1ccnc1)Cc1csc(-c2ccc(CNCc3ccccc3)cc2)n1
inhibition (%): 1.34
--
compound: CC(C)c1cccc(OCC2CCN(c3ncc(C(=O)Nc4ccccc4)cc3Cl)CC2)c1
inhibition (%): -2.66
--
compound: Cc1cc(-c2cnc(N)c(-c3ccc(N4CCN(C)CC4)nc3)c2)cc(C)c1O
inhibition (%): 0.74
--
compound: Cc1c(-c2ccccc2)ccc2[nH]cc(CC#N)c12
inhibition (%): 0.3
--
compound: CC(C)=C(C(=O)OCc1ccccc1)N1C(=O)[C@@H](NC(c2ccccc2)(c2ccccc2)c2ccccc2)[C@H]1[S+]([O-])CC(=O)OC(C)(C)C (some centres undefined)
inhibition (%): 0.75
--
compound: O=C(/C=C/c1ccc(Cl)c(Cl)c1)NCCCCCN1CCC(NC(=O)c2ccc(F)cc2F)CC1
inhibition (%): -1.5
--
compound: Cc1cc2ncc(C(N)=O)c(Nc3ccc(N4CCOCC4)cc3)c2cc1S(C)(=O)=O
inhibition (%): 5.19
--
compound: O=C(Cn1c(CCc2cccc(F)c2F)cc(=O)c2cccnc21)N(CCN1CCCC1)Cc1ccc(-c2ccc(C(F)(F)F)cc2)cc1
inhibition (%): 1.23
